Values were extracted from patent US20240182536A1.

Biological target: T1, IL-18 receptors on HEK-Blue IL-18 reporter cells (UniProt Q13478 19-541; O95256 20-599, limits assumed)
T1 sequence (looked up) 1: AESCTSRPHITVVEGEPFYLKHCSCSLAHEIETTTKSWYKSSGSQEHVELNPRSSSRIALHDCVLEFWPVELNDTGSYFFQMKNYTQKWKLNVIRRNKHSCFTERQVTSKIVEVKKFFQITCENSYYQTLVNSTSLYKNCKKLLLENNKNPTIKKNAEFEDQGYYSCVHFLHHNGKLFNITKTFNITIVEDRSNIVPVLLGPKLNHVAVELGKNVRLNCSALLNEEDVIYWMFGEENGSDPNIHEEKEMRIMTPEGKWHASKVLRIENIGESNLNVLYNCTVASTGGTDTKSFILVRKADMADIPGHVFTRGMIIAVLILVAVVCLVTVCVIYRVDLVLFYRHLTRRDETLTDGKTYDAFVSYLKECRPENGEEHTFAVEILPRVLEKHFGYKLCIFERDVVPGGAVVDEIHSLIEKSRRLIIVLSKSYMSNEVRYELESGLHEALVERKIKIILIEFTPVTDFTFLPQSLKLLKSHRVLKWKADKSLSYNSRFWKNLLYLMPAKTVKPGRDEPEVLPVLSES
T1 sequence (looked up) 2: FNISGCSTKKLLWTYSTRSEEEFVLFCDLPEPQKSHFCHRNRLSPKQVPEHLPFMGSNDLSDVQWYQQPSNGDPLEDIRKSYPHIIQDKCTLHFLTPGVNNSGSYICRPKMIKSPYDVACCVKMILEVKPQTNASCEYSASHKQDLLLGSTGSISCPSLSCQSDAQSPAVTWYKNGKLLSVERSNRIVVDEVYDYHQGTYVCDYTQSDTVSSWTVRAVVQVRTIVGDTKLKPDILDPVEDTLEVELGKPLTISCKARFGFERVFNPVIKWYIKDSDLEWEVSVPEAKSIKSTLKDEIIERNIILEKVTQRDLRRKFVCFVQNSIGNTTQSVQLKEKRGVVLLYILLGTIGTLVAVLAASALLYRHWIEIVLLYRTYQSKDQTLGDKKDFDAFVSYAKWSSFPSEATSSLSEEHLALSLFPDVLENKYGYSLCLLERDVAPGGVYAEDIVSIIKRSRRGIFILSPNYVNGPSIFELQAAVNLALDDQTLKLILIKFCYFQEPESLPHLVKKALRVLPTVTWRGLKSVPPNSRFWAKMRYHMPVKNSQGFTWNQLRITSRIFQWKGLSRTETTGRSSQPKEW
Test: cell-based or functional assay
ENDPOINT_NAME: Activity, No BP, DF-2500000

[
  {
    "BINDER": "IL-18 variant G3L, E6Y, D54T, T63S, N91Y, R104Q (ligand) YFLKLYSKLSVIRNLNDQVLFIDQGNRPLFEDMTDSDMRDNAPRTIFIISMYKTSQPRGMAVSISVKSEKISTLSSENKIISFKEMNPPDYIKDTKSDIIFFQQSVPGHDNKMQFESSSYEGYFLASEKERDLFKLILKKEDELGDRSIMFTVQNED",
    "REPORTED_RESULT": 1.69
  },
  {
    "BINDER": "IL-18 variant G3N, E6S, K53Q, D54W, S55R, N91T, R104T (ligand) YFNKLSSKLSVIRNLNDQVLFIDQGNRPLFEDMTDSDMRDNAPRTIFIISMYQWRQPRGMAVTISVKSEKISTLSSENKIISFKEMNPPDTIKDTKSDIIFFQTSVPGHDNKMQFESSSYEGYFLASEKERDLFKLILKKEDELGDRSIMFTVQNED",
    "REPORTED_RESULT": 0.14
  },
  {
    "BINDER": "IL-18 variant G3Q, E6N, D54Y, S55P, T63S, N91S, R104H (ligand) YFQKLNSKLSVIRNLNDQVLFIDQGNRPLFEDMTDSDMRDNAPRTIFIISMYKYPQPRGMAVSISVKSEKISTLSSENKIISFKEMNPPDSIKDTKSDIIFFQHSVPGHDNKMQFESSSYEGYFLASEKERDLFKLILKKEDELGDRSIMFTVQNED",
    "REPORTED_RESULT": 0.28
  }
]
